Hello, the source for this data is ChEMBL document CHEMBL1201862, in case you need it.

- target-or-test-system: E3 ubiquitin-protein ligase XIAP (Homo sapiens, UniProt P98170)
- Sequence (P98170 whole entry): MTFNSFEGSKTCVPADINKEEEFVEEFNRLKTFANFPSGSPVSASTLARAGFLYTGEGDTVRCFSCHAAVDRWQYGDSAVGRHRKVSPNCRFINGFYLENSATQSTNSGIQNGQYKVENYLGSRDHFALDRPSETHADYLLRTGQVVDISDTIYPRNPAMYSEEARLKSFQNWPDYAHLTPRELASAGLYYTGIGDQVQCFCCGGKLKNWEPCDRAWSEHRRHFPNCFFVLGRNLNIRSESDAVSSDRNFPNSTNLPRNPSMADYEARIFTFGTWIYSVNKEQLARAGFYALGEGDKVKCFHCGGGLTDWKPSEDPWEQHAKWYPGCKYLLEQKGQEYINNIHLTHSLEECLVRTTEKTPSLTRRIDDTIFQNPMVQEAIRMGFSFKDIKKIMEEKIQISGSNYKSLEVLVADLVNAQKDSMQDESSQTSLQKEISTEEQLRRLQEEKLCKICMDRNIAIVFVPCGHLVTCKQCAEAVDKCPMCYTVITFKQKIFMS
- experimental-protocol: Counter Screen using XIAP-Bir3 for Chemical Antagonists of Bir1/2 domains of IAP-family anti-apoptotic proteins. [Related pubchem assays (depositor defined):AID1018, AID1449, AID1514, AID1638, AID1749, AID1750, AID488957, AID488963]
Calls of active or inactive are those of the source. The rule behind the calls is not given here.
measured-metric: IC50

IC50 recorded for this compound, CCOC(=O)c1ccc2c(c1)C1C=CCC1C(C(=O)O)N2 (stereo not given) , is > 1.56 µM (inactive)

Memo: CN(Cc1ccccc1)C(=O)c1ccc2c(c1)NC(=O)C(N1CCOCC1)S2 (stereo not given) , reported IC50: > 100 µM (inactive)

Value of measured IC50 for the entry COC(=O)c1ccc(C(=O)OC)c(NS(C)(=O)=O)c1 : > 100 µM (inactive)

Field IC50 (entry Cc1ccccc1NC(=O)CN1C(=O)N/C(=C\c2ccccc2OCc2ccc(C(=O)O)cc2)C1=O ) reads > 20 µM (inactive)

Memo: C=CCSc1nnc(-c2ccc(Cl)cc2Cl)o1 , reported IC50: > 100 µM (inactive)
